- experiment: Acute toxicity test, simplified probability unit method
- condition_summary: both sexes, mouse, in vivo; oral administration, Kunming mice
readout: LD50 (mg/kg)
Write the number in mg/kg without appending the unit.

Exercise: Identify the reported LD50 for the following entry. Clc1cccc(C2CCN(CCCCn3nnc4ccccc43)CC2)c1
Solution: 362

* * *

Hi there, I'd appreciate the recorded pEC50 for every entry that follows.
- System: In-Vitro Vascular Smooth Muscle of Rabbits
- experiment: Relaxant effect on in vitro rabbit vascular smooth muscle contraction induced by hyperkalemia solution
- condition_summary: Oryctolagus cuniculus, relaxation of rabbit aortic rings contracted by hyperkalemia solution (K+ 60 mmol/L)
pEC50 (log units): -log10 of the concentration in mol/L.

Exercise: Query pEC50 for c1ccc2c(c1)nnn2CCCCN1CCC(C2CCCCC2)CC1
Solution: 4.14

Exercise: Given the compound Clc1cccc(N2CCN(CCCn3nnc4ccccc43)CC2)c1Cl , write its reported pEC50.
Solution: 5.33

Exercise: Identify the reported pEC50 for the following entry. Clc1cccc(C2CCN(CCCCn3nnc4ccccc43)CC2)c1
Solution: 4.82

Exercise: Identify measured pEC50 corresponding to Cc1ccc2nnn(CCCN3CCC(c4noc5cc(F)ccc45)CC3)c2c1
Solution: 5.28

Exercise: Provide pEC50 value for the following compound: COc1ccc2c(C3CCN(CCCCn4nnc5ccc(C#N)cc54)CC3)noc2c1
Solution: 4.23

Exercise: Could you please provide reported pEC50 for N#Cc1ccc2nnn(CCCCN3CCN(c4cccc(C(F)(F)F)c4)CC3)c2c1 ? Thanks!
Solution: 4.31

Exercise: Supply recorded pEC50 for N#Cc1ccc2nnn(CCCCN3CCC(c4cccc(C(F)(F)F)c4)CC3)c2c1 here.
Solution: 4.23

Exercise: For FC(F)(F)c1cccc(C2CCN(CCCCn3nnc4ccccc43)CC2)c1 , write its pEC50.
Solution: 6.12

Exercise: Name the recorded pEC50 of the item c1ccc2c(c1)ncn2CCCCN1CCN(c2n[nH]c3ccccc23)CC1 in your answer.
Solution: 3.93

Exercise: Quote pEC50 reported for c1coc(C2CCN(CCCCn3cnc4ccccc43)CC2)c1 please.
Solution: 4.53
